Kd values, listed per item
Target: T1, recombinant human GPC3 protein (human, UniProt P51654 25-563)
T1 construct: also called human GPC3 full-length protein; recombinant GPC3 protein
Assay: BLI (Octet), antibody on Protein A probe
Protocol: Using BLI technology (Octet), the antibody to be tested was captured on the Protein A probe. The binding capacity with human GPC3 protein (10 μg/ml as the initial concentration, 2-fold gradient, a total of 5 concentration points) was detected. The affinity constant KD was obtained according to the association and dissociation rates. The 49G8 humanized antibody binds to the recombinant GPC3 protein with high affinity. The affinity data is seen in Table 6.
experimental-endpoint: Kd (nM)

{"binder": "h49G8VHv6VKv2 (antibody, V domains shown, Humanized 49G8; The name is read as h49G8VHv6 plus h49G8VKv2) VH: QVQLVQSGAEVKKPGSSVKVSCKASGYTFADYEIHWVRQAPGQGLEWMGAIHPGSGGTAYAQKFQGRVTLTADESSTTAYMELSSLRSEDTAVYYCTRYYSFAYWGQGTLVTVSS VL: DVVMTQSPLSLPVTPGEPASISCRSSQSIVHSNYNTYLEWYLQKPGQSPQLLIYKVSNRFSGVPDRFSGSGSGTDFTLKISRVEAEDVGVYFCLQVTHVPLTFGQGTKLEIK", "result-units": "nM", "observed-measurement": 2}
{"binder": "h49G8VHv6VKv4 (antibody, V domains shown, Humanized 49G8) VH: QVQLVQSGAEVKKPGSSVKVSCKASGYTFADYEIHWVRQAPGQGLEWMGAIHPGSGGTAYAQKFQGRVTLTADESSTTAYMELSSLRSEDTAVYYCTRYYSFAYWGQGTLVTVSS VL: DVVMTQSPLSLPVTPGEPASISCRSSQSIVHSNSNTYLEWYLQKPGQSPQLLIYKVSNRFSGVPDRFSGSGSGTDFTLKISRVEAEDVGVYFCLQVTHVPLTFGQGTKLEIK", "result-units": "nM", "observed-measurement": 2.28}
{"binder": "h49G8VHv6VKv5 (antibody, V domains shown, Humanized 49G8) VH: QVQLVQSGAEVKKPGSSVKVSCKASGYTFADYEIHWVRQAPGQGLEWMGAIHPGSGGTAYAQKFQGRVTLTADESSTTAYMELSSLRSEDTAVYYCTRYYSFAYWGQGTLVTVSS VL: DVVMTQSPLSLPVTPGEPASISCRSSQSIVHSNTNTYLEWYLQKPGQSPQLLIYKVSNRFSGVPDRFSGSGSGTDFTLKISRVEAEDVGVYFCLQVTHVPLTFGQGTKLEIK", "result-units": "nM", "observed-measurement": 2.15}
